B1: TRIM63 (parent)
chain: FRCPTCRHEVIMDRHGVYGLQRNL

Variants of: B1
ASSAY_NAME: protein stability index of a GFP-peptide fusion (GPS, HEK-293T) (PSI 1-6); higher = more stable;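 also: lentivirally expressed fusions sorted by FACS into six bins by GFP to DsRed ratio, PSI derived from sequencing read proportions per bin multiplied by bin number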
DETAILS: c terminus: a fixed tail appended
Label No if protein stability index falls below 2; label Yes in every other case.

The following variants have reported results that may help.
INSERT INTO measurements (mutant, discrete_label) VALUES
  ('R2N', 'No'),
  ('V17P', 'Yes'),
  ('C6T', 'Yes'),
  ('Y18I', 'No'),
  ('R7W', 'Yes'),
  ('G19I', 'No'),
  ('E9H', 'Yes'),
  ('G16K', 'Yes'),
  ('P4Y', 'Yes'),
  ('I11N', 'Yes');

Does the reported protein stability index for R14V fall at or above the 2 mark?
No

Does the reported protein stability index for R22W fall at or above the 2 mark?
Yes

Does the reported protein stability index for I11V fall at or above the 2 mark?
No

Does the reported protein stability index for P4H fall at or above the 2 mark?
Yes
